test: AUC in human at 2 to 8 mg, po QD after 24 hrs; assay type: ADME, organism-based; conditions: in vivo

Compound | Units Label | AUC at 24 h
CN(CCOc1ccc(CC2SC(=O)NC2=O)cc1)c1ccccn1 (stereo unspecified) | µM·h | 8.02

----------
assay: AUC in human at 150 to 300 mg, po QD after 24 hrs; type: ADME, organism-based; conditions: in vivo

Compound | AUC at 24 h, µM·h
CCCCC1=NC2(CCCC2)C(=O)N1Cc1ccc(-c2ccccc2-c2nnn[nH]2)cc1 [IRBESARTAN] | 52.9

----------
experiment: AUC in human at 1 ug/ml, po QD after 24 hrs; type: ADME, organism-based; design: dose 1 ug/ml, time < 24 hr, route oral; details: in vivo
Property: AUC at 24 h (nM·h)

Structure | Observed
C=C1/C(=C\C=C2/CCC[C@]3(C)[C@@H]([C@H](C)CCCC(C)(C)O)CC[C@@H]23)C[C@@H](O)C[C@@H]1O | 2
